Target: MRG15 MRG R201K (human) (UniProt Q9UBU8)
Assay: ITC
metric-name: Kd (nM)
Answers are plain numbers, in nM.

## Input State the recorded Kd for this entry: DYVQPQLRRPFELLIAAAMERNPTQFQLPNELTCTTALPGSS (domain or fragment) [Pf1 MBD (MRG-binding domain, residues 200–241)]
## Output 23
